# tgt: activated MMP-9 (Homo sapiens, UniProt P14780)
# Sequence (P14780 107-707 limits assumed): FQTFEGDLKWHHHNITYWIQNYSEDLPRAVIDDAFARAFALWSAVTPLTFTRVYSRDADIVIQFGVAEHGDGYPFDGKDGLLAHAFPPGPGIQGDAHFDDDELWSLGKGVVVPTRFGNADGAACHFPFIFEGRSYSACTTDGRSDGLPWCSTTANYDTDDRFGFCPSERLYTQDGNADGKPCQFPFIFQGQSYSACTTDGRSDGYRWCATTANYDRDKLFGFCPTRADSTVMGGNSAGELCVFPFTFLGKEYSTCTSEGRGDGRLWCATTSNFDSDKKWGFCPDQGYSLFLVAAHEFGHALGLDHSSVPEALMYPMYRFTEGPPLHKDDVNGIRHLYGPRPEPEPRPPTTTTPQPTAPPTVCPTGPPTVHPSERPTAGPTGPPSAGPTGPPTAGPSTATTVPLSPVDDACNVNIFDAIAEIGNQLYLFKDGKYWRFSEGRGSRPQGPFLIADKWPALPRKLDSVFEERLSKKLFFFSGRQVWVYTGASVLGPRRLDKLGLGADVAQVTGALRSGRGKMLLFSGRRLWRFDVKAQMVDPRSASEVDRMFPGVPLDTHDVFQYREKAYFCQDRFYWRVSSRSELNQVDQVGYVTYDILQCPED
# run_description: In-vitro MMP inhibition assay (fluorogenic peptide substrate)
# condition_description: 1 h at 27° C., triplicate
# Description: Individual inhibitors were dissolved in TCN buffer (50 mM Tris-HCl, 10 mM CaCl2, 150 mM […], 0.05% Brij 35 at pH 7.5) at appropriate dilutions then added to the wells of a microtiter plate (10 μL/well) in triplicate. […] The resulting mixtures were incubated 1 h at 27° C. then analyzed using a FL600 fluorescent plate reader (excitation=310/20; emission=420/50; optics=bottom; sensitivity=225) and KC4 Software.
property_name: IC50 (nM)

Sample answers from the record:
Item under review: CC(C)C[C@H]1C(=O)N[C@H](C(=O)NCc2ccc(F)cc2)Cc2ccc(cc2)OCCC[C@@H]1C(=O)NO . Reported IC50?
0.74

Item under review: CC(C)C[C@H]1C(=O)N[C@H](C(=O)NCc2ccc(OCCCF)cc2)Cc2ccc(cc2)OCCC[C@@H]1C(=O)NO . Reported IC50?
2.98

Item under review: CC(C)C[C@H]1C(=O)N[C@H](C(=O)NCCCCCCF)Cc2ccc(cc2)OCCC[C@@H]1C(=O)NO . Reported IC50?
20.2

Item under review: CC(C)C[C@H]1C(=O)N[C@H](C(=O)NCC(=O)NCCCF)Cc2ccc(cc2)OCCC[C@@H]1C(=O)NO . Reported IC50?
2.59

I. CC(C)C[C@H]1C(=O)N[C@H](C(=O)NCCCF)Cc2ccc(cc2)OCCC[C@@H]1C(=O)NO
II. CC(C)C[C@H]1C(=O)N[C@H](C(=O)NCC(=O)NCCCCCF)Cc2ccc(cc2)OCCC[C@@H]1C(=O)NO
Could you kindly indicate whether I or II has the higher IC50 value? Write down the label attached to your selection.
II
(II: 15.3 nM, I: 3.54 nM)

----------
# tgt: activated MMP-2 (Homo sapiens)
# Sequence (P08253 110-660): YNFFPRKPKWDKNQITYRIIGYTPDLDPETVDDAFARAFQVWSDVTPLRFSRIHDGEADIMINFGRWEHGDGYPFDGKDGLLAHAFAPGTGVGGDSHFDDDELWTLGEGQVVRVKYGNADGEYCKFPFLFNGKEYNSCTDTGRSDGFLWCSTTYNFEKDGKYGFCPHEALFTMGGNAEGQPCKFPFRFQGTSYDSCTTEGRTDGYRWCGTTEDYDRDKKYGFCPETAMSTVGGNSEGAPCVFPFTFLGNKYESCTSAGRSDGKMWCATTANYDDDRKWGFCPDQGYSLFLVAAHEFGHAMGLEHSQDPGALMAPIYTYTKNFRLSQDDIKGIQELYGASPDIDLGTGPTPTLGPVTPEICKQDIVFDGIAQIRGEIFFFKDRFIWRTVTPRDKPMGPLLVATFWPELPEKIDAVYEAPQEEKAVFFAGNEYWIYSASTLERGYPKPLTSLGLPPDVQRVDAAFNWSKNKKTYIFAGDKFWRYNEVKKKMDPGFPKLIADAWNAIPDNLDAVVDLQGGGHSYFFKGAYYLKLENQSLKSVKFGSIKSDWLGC
# run_description: In-vitro MMP inhibition assay (fluorogenic peptide substrate)
# condition_description: 1 h at 27° C., triplicate
property_name: IC50 (nM)

Item under review: CC(C)C[C@H]1C(=O)N[C@H](C(=O)NCCCCCCF)Cc2ccc(cc2)OCCC[C@@H]1C(=O)NO . Reported IC50?
31.6

a. CC(C)C[C@H]1C(=O)N[C@H](C(=O)NCC(=O)NCCCF)Cc2ccc(cc2)OCCC[C@@H]1C(=O)NO
b. CC(C)C[C@H]1C(=O)N[C@H](C(=O)NCc2ccc(OCCCF)cc2)Cc2ccc(cc2)OCCC[C@@H]1C(=O)NO
c. CC(C)C[C@H]1C(=O)N[C@H](C(=O)NCc2ccc(F)cc2)Cc2ccc(cc2)OCCC[C@@H]1C(=O)NO
Put the items in sequence by IC50, from largest down. Provide the labels, sequenced as the question asks.
a, b, c
(a: 4.61 nM, b: 2.74 nM, c: 0.58 nM)

a. CC(C)C[C@H]1C(=O)N[C@H](C(=O)NCCCF)Cc2ccc(cc2)OCCC[C@@H]1C(=O)NO
b. CC(C)C[C@H]1C(=O)N[C@H](C(=O)NCC(=O)NCCCCCF)Cc2ccc(cc2)OCCC[C@@H]1C(=O)NO
Could you kindly indicate whether a or b has the higher IC50 value? Write down the label attached to your selection.
b

Source listed as patent US11865195B2.
